# System: HL-60(TB) leukemia
# ASSAY_EXPLANATION: NCI tumour cell line growth inhibition, 48 h
OBSERVATION_TYPE: TGI

| COMPOUND | TGI |
| --- | --- |
| NNC(=S)N/N=C(/C(=O)Nc1ccc(Cl)c(Cl)c1)C(C1OC(=O)c2ccccc21)[N+](=O)[O-] (stereo unspecified) | > 100 µM |
| COc1ccc(-c2cc(-c3cc(C)cc(Br)c3O)no2)cc1 | > 100 µM |
| CC(=O)OC1C(Oc2c(C)cc3c(c2O)[C@@H](C)CC[C@@H]3[C@@H](C)CCC=C(C)C)OCC(O)C1O (stereo partly specified) | 41.7 µM |
| CCOC(=O)N[C@@H]1C(CC(=O)OC)O[C@H]2OC(C)(C)O[C@H]21 (stereo partly specified) | > 100 µM |
| CC1CCCCNC1=S (stereo unspecified) | > 10 µM |

Next:
So for C1=Cc2cc3c(c4nccc(c24)N1)OCO3 , the logged TGI turned out to be > 100 µM

* * *

# Test system: CCRF-CEM leukemia
# ASSAY_EXPLANATION: NCI tumour cell line growth inhibition, 48 h
OBSERVATION_TYPE: TGI

| MOLECULE | TGI |
| --- | --- |
| Clc1ccc(-c2cc3nc4ccccc4nc3o2)cc1 | > 100 µM |
| CCOC(=O)c1ccc(N[C@@H]2c3cc4c(cc3C(c3cc(OC)c(O)c(OC)c3)[C@H]3C(=O)OCC32)OCO4)cc1O (stereo partly drawn) | > 100 µM |
| O=C(Nc1nnc(-c2ccc(Cl)cc2)o1)C(SC(=S)N1CCOCC1)c1ccccc1 (stereo not drawn) | > 100 µM |
| O=C(CCc1nc(=S)[nH][nH]1)Nc1ccccc1Cl | > 100 µM |
| COc1ccc(CN2CC(C)(C)C2=O)c(OC)c1 | > 100 µM |
| Cc1cc(C(=O)Nc2ccc3cc(CN4CCOCC4)ccc3n2)c(C)n1-c1ccccc1 | > 93.7 µM |
| Nc1nc(-c2ccccc2)cc(-c2ccc(OCc3ccccc3)cc2O)n1 | > 100 µM |
| C[Si](C)(C)OC1CC(=O)OC1n1cc(F)c(=O)[nH]c1=O (stereo not drawn) | > 96.4 µM |

For each of the molecules below, note its TGI.
1. CCOC(=O)c1cn2c(n1)sc1cc(Cl)ccc12
2. O=C(Nc1ccccc1-c1nc2ccccc2[nH]c1=O)c1ccccc1
3. O=C1NC(=S)NC(=O)C1C(c1ccc(O)cc1)C1C(=O)NC(=S)NC1=O
4. CCOC(=O)C(=O)Nc1ccccc1CC
5. O=S(=O)(c1ccc(NC(=S)NC23CC4CC(CC(C4)C2)C3)cc1)N1CCCCC1

> 100 µM
> 100 µM
> 100 µM
> 100 µM
> 100 µM

* * *

# System: HOP-92 NSCLC
# ASSAY_EXPLANATION: NCI tumour cell line growth inhibition, 48 h
OBSERVATION_TYPE: TGI

| MOLECULE | VALUE_REPORTED |
| --- | --- |
| O=C1c2ccccc2C(=O)C1(O)c1c[nH]c2ccccc12 | > 100 µM |
| CCOC(=O)c1ccc(NCc2ccc3oc(=O)c(-c4ccccc4)nc3c2)cc1 | 83 µM |
| CN=C(SC)N(C)c1nc(=[N+](C)C)ss1 | > 100 µM |
| O=[N+]([O-])c1ccc(S(=O)(=O)n2c3ccc(Br)cc3c3nc4ccccc4nc32)cc1 | > 100 µM |
| C[C@@H](c1ccccc1)n1c(N)c(C#N)c2ccc([N+](=O)[O-])cc2c1=O | 24 µM |

With those in mind, consider the next molecule.
// TGI value for CCOC(=O)C1C(=O)CC1(C)C (stereo unspecified) : > 10 µM
